test: Metabolic stability in pooled human liver microsomes; format: in vitro ADME; conditions: pooled human liver microsomes 0.5 mg/mL, 1 μM test compound, 37° C., with 1 mM NADPH; * rows = mean of two runs
experimental_readout: T1/2, + NaDPH (min)
Value expressed in min; do not type the unit.

Entry under test: COc1cnc(NS(=O)(=O)c2ccc(CC(C)C)cc2-c2ccc(Cn3ccnc3C(C)(C)C)c(F)c2)nc1 . Its T1/2, + NaDPH was 35

Entry under test: COc1cc(NS(=O)(=O)c2ccc(CC(C)C)cc2-c2ccc(Cn3ccnc3C(C)(C)C)cc2)nc(OC)n1 . Its T1/2, + NaDPH was 11

Entry under test: CC(C)Cc1ccc(S(=O)(=O)Nc2ccsn2)c(-c2ccc(Cn3ccnc3C(C)(C)C)cc2)c1 . Its T1/2, + NaDPH was 13

Entry under test: CC(C)Cc1ccc(S(=O)(=O)Nc2ccsn2)c(-c2ccc(Cn3ccnc3C(C)(C)C)c(F)c2)c1 . Its T1/2, + NaDPH was 13

# credit: patent US12441718B2
